test system: Bovine cardiac myofibrils; assay: In vitro model of dose-dependent myofibril ATPase modulation (AC1.4, pyruvate kinase/lactate dehydrogenase-coupled ATPase assay at pCa25); format: biochemical; settings: concentration at which ATPase activity was 1.4-fold higher than the bottom of the dose curve, mean of a minimum of two independent tests
# if measured AC1.4 < 0.3 µM: met  # else: not met

// known answers, use as guide
>>> qualitative_label("CC[C@@H](NC(=O)[C@H]1CCCN1C(=O)c1cccc(S(=O)(=O)N2CC(C#N)C2)c1)c1ccc(C(F)(F)F)cc1F [Example 12]")
"met"
>>> qualitative_label("O=C(NCc1ccc(C(F)(F)F)cc1)[C@H]1CCCN1C(=O)[C@H]1CCCN(S(=O)(=O)N2CC(F)(F)C2)C1 [Example 703]")
"not met"
>>> qualitative_label("N#CC1CN(S(=O)(=O)c2cccc(C(=O)N3CC(F)(F)C[C@@H]3C(=O)NCc3ccc(C(F)(F)F)cc3)c2)C1 [Example 8]")
"met"
>>> qualitative_label("CS(=O)(=O)c1cc(C(=O)N2[C@@H](C(=O)N[C@@H](c3cc(F)c(Cl)cc3F)C3CC3)C[C@@H]3C[C@@H]32)ccn1 [Example 779]")
"not met"
>>> qualitative_label("COCC(NC(=O)[C@H]1CCCN1C(=O)[C@H]1CCCN(S(=O)(=O)N2CC(C#N)C2)C1)c1ccc(Cl)cc1 (stereo partly shown) [Example 97]")
"met"
>>> qualitative_label("N#CC1CN(S(=O)(=O)c2cccc(C(=O)N3CCC[C@@H]3C(=O)N[C@H](CO)c3ccc(Cl)cc3)c2)C1 [Example 57]")
"met"

Exam item: I wonder whether CC(=O)Nc1ccccc1C(=O)N1[C@@H](C(=O)N[C@@H](c2ccc(C(F)(F)F)cc2F)C2CC2)C[C@H]2C[C@H]21 [Example 372] has AC1.4 below 0.3 µM. Can you tell?
Marked response: not met

From: patent US11780826B2
